B1: GFOD1 (parent)
chain: EEAEELAKEMSVPFYTSRIDEVLL

# Variants of: B1
# ASSAY_REMARKS: protein stability index of a GFP-peptide fusion (GPS, HEK-293T) (PSI 1-6); higher = more stable;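 further: lentivirally expressed fusions sorted by FACS into six bins by GFP to DsRed ratio, PSI derived from sequencing read proportions per bin multiplied by bin number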
# MEASUREMENT_PARAMETERS: c terminus: a fixed tail appended
# label = condition met if protein stability index >= 4 else condition not met

protein stability index >= 4 for E5C ?
condition not met

Test whether the variant E5K records protein stability index of 4 or higher.
condition met

Confirm if protein stability index reported for the variant E2G is 4 or above.
condition not met

Textbook exercise: given the entry L24T , state whether its protein stability index is greater than or equal to 4.
condition met

Exam item: decide whether the reported protein stability index for S17E is at least 4.
condition met

Record V12C ; criterion: protein stability index no lower than 4. Met?
condition not met

Does the variant E21N have recorded protein stability index that is 4 or more?
condition not met

For this variant, is measured protein stability index 4 or higher? L23N
condition met

Confirm if protein stability index reported for the variant M10Q is 4 or above.
condition met

Could you please find out whether S11K has protein stability index that meets 4 or exceeds it?
condition not met

Hello, I need to know if A7F has measured protein stability index not below 4. Thanks!
condition not met

Reported protein stability index reaches at least 4 for M10H ?
condition met

Could you verify whether the entry E1Y shows protein stability index of no less than 4?
condition not met

protein stability index >= 4 for D20I ?
condition not met

Kindly determine if protein stability index recorded for M10A is above or exactly 4.
condition met

# check: protein stability index of E4W is greater than or equal to 4
condition not met

Decide: is the reported value of protein stability index for E1H equal to or greater than 4?
condition met

Quick check, protein stability index >= 4? A7W
condition not met

Does protein stability index meet or surpass 4 for E21Y ?
condition not met

Is reported protein stability index greater than or equal to 4 here: E2F
condition not met

# check: protein stability index of M10V is greater than or equal to 4
condition not met

Could you tell me if the measured protein stability index of E1S reaches 4 or more?
condition met

Evaluate V12A : protein stability index at minimum 4?
condition not met

Threshold query (protein stability index >= 4) on E4C
condition not met

Determine whether measured protein stability index meets or exceeds 4 for K8Y
condition not met

Threshold query (protein stability index >= 4) on D20C
condition not met

# bool: protein stability index of E1A >= 4
condition not met

Test whether the variant S17D records protein stability index of 4 or higher.
condition met

# bool: protein stability index of E2T >= 4
condition not met

Check this variant for protein stability index at or above 4: K8P
condition not met

Identify whether the reported protein stability index of the following variant is 4 or greater: A7E
condition not met

Reported protein stability index reaches at least 4 for R18C ?
condition met

Exam item: decide whether the reported protein stability index for L23V is at least 4.
condition met

Is the recorded value of protein stability index equal to or greater than 4 for this variant? A7H
condition met

Is the recorded value of protein stability index equal to or greater than 4 for this variant? T16Q
condition met

protein stability index >= 4 for E5V ?
condition not met

Would you say S11M shows protein stability index at minimum 4?
condition not met

Hello, I need to know if R18D has measured protein stability index not below 4. Thanks!
condition met
